Tested on: UDP-N-acetylbacillosamine N-acetyltransferase PglD (Campylobacter jejuni)
Assay: C. jejuni PglD acetyltransferase inhibitors, primary screen, biochemical, DTNB colorimetric, single point (AID 602405)
Details: purified PglD enzyme, DTNB colorimetric CoA detection; at 12.5 µM; stronger effect = higher value
Hit rate of the full screen: of about 360,000 compounds, about 350 (0.097%) were called active. The entries come from a sample that favours actives as a whole.
ASSAY_ENDPOINT: inhibition (%)

COMPOUND: Cc1ccc(NC(=O)CNCc2ccccn2)cc1S(=O)(=O)N(C)C
TARGET_OR_SYSTEM: UDP-N-acetylbacillosamine N-acetyltransferase PglD (Campylobacter jejuni)
UNIT_INFO: %
VALUE_OBSERVED: 20.4

COMPOUND: O=C(C[C@H]1CC[C@H](NC(=O)Nc2ccc(C(F)(F)F)cc2)[C@H](CO)O1)NCCN1CCCC1
TARGET_OR_SYSTEM: UDP-N-acetylbacillosamine N-acetyltransferase PglD (Campylobacter jejuni)
UNIT_INFO: %
VALUE_OBSERVED: -2.91

COMPOUND: CCCCC(=O)Nc1ccc(C(=O)NCCCn2ccnc2)cc1
TARGET_OR_SYSTEM: UDP-N-acetylbacillosamine N-acetyltransferase PglD (Campylobacter jejuni)
UNIT_INFO: %
VALUE_OBSERVED: 20.6

COMPOUND: OC[C@H]1[C@@H](c2ccc(/C=C/c3ccccc3)cc2)[C@H]2CN(Cc3cccnc3)CCCCN21
TARGET_OR_SYSTEM: UDP-N-acetylbacillosamine N-acetyltransferase PglD (Campylobacter jejuni)
UNIT_INFO: %
VALUE_OBSERVED: -0.638

COMPOUND: CCCC(=O)Nc1ccc2c(c1)C(=O)N(C)[C@H]1CC[C@@H](CC(=O)NCc3cccc(F)c3)O[C@H]1CO2
TARGET_OR_SYSTEM: UDP-N-acetylbacillosamine N-acetyltransferase PglD (Campylobacter jejuni)
UNIT_INFO: %
VALUE_OBSERVED: 0.49

COMPOUND: CO[C@@H]1CN(C)C(=O)c2cc(NC(=O)NC3CCCCC3)ccc2OC[C@H](C)N(CC2CCOCC2)C[C@H]1C
TARGET_OR_SYSTEM: UDP-N-acetylbacillosamine N-acetyltransferase PglD (Campylobacter jejuni)
UNIT_INFO: %
VALUE_OBSERVED: -1.39

COMPOUND: Cc1csc(SCC(=O)Nc2ccc(C)c(S(=O)(=O)N(C)C)c2)n1
TARGET_OR_SYSTEM: UDP-N-acetylbacillosamine N-acetyltransferase PglD (Campylobacter jejuni)
UNIT_INFO: %
VALUE_OBSERVED: 3.71

COMPOUND: CC(C)CC#Cc1cnc2c(c1)C(=O)N([C@H](C)CO)C[C@H](C)[C@@H](CN(C)C(=O)Cc1cccnc1)O2
TARGET_OR_SYSTEM: UDP-N-acetylbacillosamine N-acetyltransferase PglD (Campylobacter jejuni)
UNIT_INFO: %
VALUE_OBSERVED: -1.63

COMPOUND: CC=Cc1ccc2n(c1=O)C[C@@H]1[C@@H](CO)[C@H](C(=O)NCc3cccc(OC)c3)N[C@H]21 (mixture of isomers)
TARGET_OR_SYSTEM: UDP-N-acetylbacillosamine N-acetyltransferase PglD (Campylobacter jejuni)
UNIT_INFO: %
VALUE_OBSERVED: 0.651

###

Test system: UDP-N-acetylbacillosamine N-acetyltransferase PglD (Campylobacter jejuni)
Assay: C. jejuni PglD acetyltransferase inhibitors, primary screen, biochemical, DTNB colorimetric, single point (AID 602405)
Details: purified PglD enzyme, DTNB colorimetric CoA detection; at 12.5 µM
The whole screen tested about 360,000 compounds, of which about 350 (0.097%) were called active. No stated cut-off is given here; in the data, active means inhibition above about 16% (passing the limit was not always enough); inconclusive means no clear call, values can overlap the other calls; inactive means below that. The entries come from a sample that favours actives as a whole.
Classes used: 1 (yes) = active, 0 (no) = inactive

MOLECULE: C[C@H]1CN([C@@H](C)CO)C(=O)c2cccc(NC(=O)Nc3ccccc3)c2O[C@H]1CN(C)S(=O)(=O)c1ccc(Cl)cc1
LABEL_VALUE: 0 (no)
//
MOLECULE: O=C(N[C@H]1C=C[C@@H](CC(=O)N2CCN(c3ccccc3)CC2)O[C@@H]1CO)c1ccncc1
LABEL_VALUE: 0 (no)
//
MOLECULE: CSCCC(NC(=O)c1ccccc1)C(=O)N1CCCCCCC1 (stereo not drawn)
LABEL_VALUE: 0 (no)
//
MOLECULE: O=C(Nc1ccccc1)N[C@@H]1CC[C@H](CCn2cc(C3(O)CCCC3)nn2)O[C@@H]1CO
LABEL_VALUE: 0 (no)
//
MOLECULE: O=C(NCc1ccncc1)C1CCN(C(=O)c2cccc(Cl)c2)CC1
LABEL_VALUE: 1 (yes)
//
MOLECULE: C[C@H]1CCCCO[C@@H](CN(C)C(=O)Nc2cccc3ccccc23)[C@@H](C)CN([C@@H](C)CO)C(=O)c2cc(NS(=O)(=O)c3ccc(Cl)cc3)ccc2O1
LABEL_VALUE: 0 (no)
//
MOLECULE: COc1ccc(S(=O)(=O)NC(C)C(=O)N2CCCCCC2)cc1 (stereo not drawn)
LABEL_VALUE: 0 (no)
//
MOLECULE: COc1cccc(C(=O)Nc2ccc3c(c2)C(=O)N(C)[C@H]2CC[C@H](CC(=O)N[C@@H](C)c4ccccc4)O[C@H]2CO3)c1
LABEL_VALUE: 0 (no)
//
MOLECULE: COc1ccc(-c2ccc3c(c2)O[C@@H](CN(C)CC2CCOCC2)[C@@H](C)CN([C@@H](C)CO)S3(=O)=O)cc1
LABEL_VALUE: 0 (no)
//
MOLECULE: C[C@@H]1CN([C@H](C)CO)S(=O)(=O)c2ccc(C#CCN(C)C)cc2O[C@@H]1CN(C)C(=O)C1CCCCC1
LABEL_VALUE: 0 (no)
//
MOLECULE: C[C@H]1CN([C@@H](C)CO)C(=O)c2cc(-c3cccc(F)c3)cnc2O[C@@H]1CN(C)Cc1cncnc1
LABEL_VALUE: 0 (no)
//
MOLECULE: O=C(c1cccc(Cl)c1)N1CCN(Cc2ccccc2)CC1
LABEL_VALUE: 0 (no)
//
MOLECULE: CCCNC(=O)N1C[C@@H](O)COC[C@@H]2O[C@@H](CC(=O)O)CC[C@H]21
LABEL_VALUE: 0 (no)
//
MOLECULE: COc1cccc(CNC(=O)C[C@H]2CC[C@@H](NC(C)=O)[C@@H](CO)O2)c1
LABEL_VALUE: 0 (no)
//
MOLECULE: CC(NC(=O)c1ccc(Cl)cc1)C(=O)N1CCCCC1 (stereo not drawn)
LABEL_VALUE: 1 (yes)
//
MOLECULE: CC=Cc1ccc2n(c1=O)C[C@H]1[C@H](CO)[C@@H](C(=O)NCc3ccncc3)N(Cc3cncnc3)[C@@H]21 (mixture of isomers)
LABEL_VALUE: 0 (no)
//
MOLECULE: CCC(=O)Nc1ccc2c(c1)C(=O)N(C)C[C@@H](OC)[C@@H](C)CN(Cc1ccccc1F)[C@H](C)CO2
LABEL_VALUE: 0 (no)
//
MOLECULE: C[C@H](CO)N1C[C@H](C)[C@H](CN(C)Cc2ccccc2)Oc2ccc(NC(=O)Cc3ccccc3)cc2C1=O
LABEL_VALUE: 0 (no)

Where these numbers come from: PubChem BioAssay AID602405
